Sourced from paper PMC6353801

Test: PK in systemic plasma of GK rats after repeated oral administration (day 35)
Type: in vivo, rat
Settings: male, GK, rat, plasma, po, 33.3 mg/kg, GK rats, systemic plasma, day 35, oral BBR+TB-2 (66.7+33.3 mg/kg); mean ± SE, n = 8; read-out: Tmax
Experimental: Analyses were performed on a Shimadzu LCMS-8030 triple quadrupole system (Shimadzu Corp., Japan) equipped with an electrospray ionization source. Data processing was performed using Shimadzu LC–MS LabSolutions (version 5.42 SP4, Shimadzu, Japan). […] Food consumption and body weight were measured every week throughout the experimental periods. […] The significance of PK parameters in normal rats, generated by the sparse method in WinNonlin, was assessed with Welch’s unequal variances t-test. […]
Exercise: state measured Tmax for each of the molecules provided.
// return numeric value only (unit: h, not printed)

Problem: Output Tmax of COc1ccc2cc3[n+](cc2c1OC)CCc1cc2c(cc1-3)OCO2 [BBR, berberine]
Result: 0.9

Problem: Output Tmax of COc1ccc2cc3[n+](cc2c1O)CCc1cc2c(cc1-3)OCO2 [M1, Berberrubine]
Result: 9.4
